Tested on: S. aureus
test-summary: Broth microdilution MIC, European bacteraemia isolates 2010-2012
Format: cell-based
experimental-conditions: S. aureus Methicillin-resistant (1,708); EUCAST 2013 breakpoints
% Susceptible, EUCAST values by entry
Could you give me the number in %? Just the number is fine.

Task: Query the reported % Susceptible, EUCAST for S. aureus; item: "C[C@H]1COc2c(N3CCN(C)CC3)c(F)cc3c(=O)c(C(=O)O)cn1c23"
Result: 8.6

Task: Query the reported % Susceptible, EUCAST for S. aureus; item: "CC[C@H]1OC(=O)[C@H](C)[C@@H](O[C@H]2C[C@@](C)(OC)[C@@H](O)[C@H](C)O2)[C@H](C)[C@@H](O[C@@H]2O[C@H](C)C[C@H](N(C)C)[C@H]2O)[C@](C)(O)C[C@@H](C)C(=O)[C@H](C)[C@@H](O)[C@]1(C)O"
Result: 29.8

Task: Query the reported % Susceptible, EUCAST for S. aureus; item: "CCCCCCCCCC(=O)N[C@@H](Cc1c[nH]c2ccccc12)C(=O)N[C@H](CC(N)=O)C(=O)N[C@@H](CC(=O)O)C(=O)N[C@@H]1C(=O)NCC(=O)N[C@@H](CCCN)C(=O)N[C@@H](CC(=O)O)C(=O)N[C@H](C)C(=O)N[C@@H](CC(=O)O)C(=O)NCC(=O)N[C@H](CO)C(=O)N[C@@H]([C@H](C)CC(=O)O)C(=O)N[C@@H](CC(=O)c2ccccc2N)C(=O)O[C@@H]1C"
Result: 100.0

Task: Query the reported % Susceptible, EUCAST for S. aureus; item: "CCC[C@@H]1C[C@@H](C(=O)N[C@@H]([C@H]2O[C@H](SC)[C@H](O)[C@@H](O)[C@H]2O)[C@H](C)Cl)N(C)C1"
Result: 58.9
